assay_explanation: qHTS of pediatric cancer cell lines to identify multiple opportunities for drug repurposing: Primary screen for Saos-2 cells (AID 1347097); note: nearly all actives have a fitted effect of over 40% in size
conditions: Saos-2 viability, CellTiter-Glo ATP luminescence, 48 h; series mostly up to 46 µM
Description: Drug repurposing or repositioning has been offered as a strategy for drug development in oncology programs. This approach has special potential for childhood cancers and other rare or orphan diseases, where the expected return on new drug development has been a disincentive to pharmaceuticals. […] We employed a titration-based paradigm (quantitative high-throughput screening or qHTS), where all compounds were tested at multiple concentrations for their effect on cell viability. […]
Results filed as inconclusive are left out. Activity calls are given as the source filed them. Calls come from the whole dose curve; as a rule, active = well fitted cell-killing curve with a large enough effect; inconclusive = small, poorly fitted or top-dose-only effect; inactive = no such curve, though single readings can be large or run the other way.
Pick from true (1) (active), false (0) (inactive) when you respond.

{"molecule": "NC(CO)(CO)CO", "qualitative_label": "false (0)"}
{"molecule": "CC(=O)CC(c1ccc([N+](=O)[O-])cc1)c1c(O)c2ccccc2oc1=O (configuration not stated)", "qualitative_label": "false (0)"}
{"molecule": "CC(=O)Nc1c(I)cc(I)c(C(=O)O)c1I", "qualitative_label": "false (0)"}

Dear all, I need the recorded test outcome for Cc1ccnc(NS(=O)(=O)c2ccc(N)cc2)n1 , thank you.
false (0)

Also N[C@@H](CCC(=O)N[C@@H](CS)C(=O)NCC(=O)O)C(=O)O , if possible.
false (0)

How about COc1cccc2c1C(=O)c1c(O)c3c(c(O)c1C2=O)C[C@@](O)(C(C)=O)C[C@@H]3O[C@H]1C[C@H](N)[C@H](O)[C@H](C)O1 ?
true (1)

Further, for O=C1OCCN1/N=C/c1ccc([N+](=O)[O-])o1 ?
false (0)

Entry to check: C[C@H]1[C@H](NC(=O)/C(=N/OC(C)(C)C(=O)O)c2csc(N)n2)C(=O)N1S(=O)(=O)O (stereo in doubt)
false (0)

How about this molecule: CC(C)(C)CC(C)(C)c1ccc(O)c(Cc2ccc(Cl)cc2Cl)c1
true (1)
